- target_under_test: human recombinant ETB receptors (Homo sapiens)
- Sequence (P24530 27-442): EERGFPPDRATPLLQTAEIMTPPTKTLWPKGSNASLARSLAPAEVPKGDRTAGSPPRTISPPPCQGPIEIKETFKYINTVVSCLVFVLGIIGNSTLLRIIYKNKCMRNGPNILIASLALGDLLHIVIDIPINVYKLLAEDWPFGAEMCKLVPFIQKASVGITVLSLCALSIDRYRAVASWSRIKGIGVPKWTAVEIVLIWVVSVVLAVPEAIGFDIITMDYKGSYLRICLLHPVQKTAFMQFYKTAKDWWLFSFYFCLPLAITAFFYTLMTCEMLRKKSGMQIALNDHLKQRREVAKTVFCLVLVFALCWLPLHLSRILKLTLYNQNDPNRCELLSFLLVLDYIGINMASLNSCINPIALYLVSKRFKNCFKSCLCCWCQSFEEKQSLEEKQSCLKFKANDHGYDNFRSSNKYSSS
- method_summary: Inhibition of [125I]ET-1 binding to membranes of CHO cells expressing human recombinant ETB receptors; also: 2.5% DMSO
measurement_kind: pIC50
Reminder that pIC50 is minus the log10 of a molar concentration.

// known answers, use as guide
compound | pIC50
Cc1ccc(-c2c(NS(=O)(=O)c3ccc(C(C)C)cn3)nc(-c3ccncc3)nc2OCC#CCO)cc1 [Example 11d] | 7.01
COc1ccccc1Oc1c(NS(=O)(=O)c2ccc(C(C)C)cn2)nc(C)nc1OCC#CCOC(=O)Nc1ccccc1 [Example 70] | 6.43
COc1cc(OC)nc(OCC#CCOc2nc(-c3ccncc3)nc(NS(=O)(=O)c3ccc(C(C)(C)C)cc3)c2Oc2ccccc2OC)n1 [Example 21] | 7.36

Prompt: What does the data say about its pIC50? Entry: COCC#CCOc1nc(N2CCOCC2)nc(NS(=O)(=O)c2ccc(C(C)C)cn2)c1Oc1ccccc1OC [Example 94]
Response: 6.97

Prompt: Same read-out for COc1ccccc1Oc1c(NS(=O)(=O)c2ccc(C(C)(C)C)cc2)nc(-c2ccncc2)nc1OCC#CCOc1ncccn1 [Example 19] ?
Response: 7.35

Prompt: Repeat for the following compound: COc1cc(OC)nc(OCC#CCOc2nc(-c3ccncc3)nc(NS(=O)(=O)c3ccc(C(C)C)cn3)c2Oc2ccccc2OC)n1 [Example 18]
Response: 7.44
